# target_or_system: soluble TSHR protein (ELISA coat) (human, UniProt P16473 22-260, limits assumed)
# assay_explanation: ELISA, plate coated with soluble TSHR, antibody at 100 nM, anti-human IgG Fc-HRP;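 note: binding of antibody variants to soluble TSHR coated at 2 µg/ml, with colour developed using TMB substrate and stopped with H2SO4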
ELISA (OD 450) at 100 nM listing for selected binders.
State just the number; it will be interpreted in OD 450.

Worked set:
binder="TSHB-13 (antibody, V domains shown) VH: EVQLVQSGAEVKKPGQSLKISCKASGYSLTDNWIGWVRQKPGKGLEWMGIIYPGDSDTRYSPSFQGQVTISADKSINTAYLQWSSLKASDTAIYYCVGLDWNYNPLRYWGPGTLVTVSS VL: QSVLTQPPSVSAAPGQKVTISCSGSSSDIGSNYVSWYQQLPGTAPKLLIYDNNKRPSGIPDRFSGSKSGTSATLGITGLQTGDEADYYCGTWDSRLGIAVFGGGTQLTVL" unit_spec="OD 450" observed_measurement=0.495
binder="TSHB-24 (antibody, V domains shown) VH: EVQLVQSGAEVKKPGESLKISCKASGYSLTDNWIGWVRQKPGKGLEWMGIIYPGDSDTRYSPSFQGQVTISADKSISTAYLQWSSLKASDTAIYYCVGLDWNYNPLRYWGQGTLVTVSS VL: QSVLTQPPSVSGAPGQRVTISCSGSSSDIGSNYVSWYQQLPGTAPKLLIYDNNKRPSGVPDRFSGSKSGTSASLAITGLQAEDEADYYCGTWDSRLGIAVFGGGTKLTVL" unit_spec="OD 450" observed_measurement=0.49

Field: next binder
Request: Can you look up the measured ELISA (OD 450) at 100 nM of TSHB-5 (antibody, V domains shown) VH: EVQLVQSGAEVKKPGESLKISCKASGYQLTDNWIGWVRQKPGKGLEWMGIIYPGDSDTRYSPSFQGQVTISADKSISTAYLQWSSLKASDTAIYYCVGLDWNYNPLRYWGQGTLVTVSS VL: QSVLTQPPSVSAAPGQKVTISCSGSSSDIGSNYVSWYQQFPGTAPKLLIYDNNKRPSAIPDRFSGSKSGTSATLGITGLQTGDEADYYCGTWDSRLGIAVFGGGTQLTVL for me?
Response: 0.498

Origin of values: patent US20250388688A1
